- experimental.target: human Nod1 (Homo sapiens, UniProt Q9Y239)
- Sequence (Q9Y239 whole entry): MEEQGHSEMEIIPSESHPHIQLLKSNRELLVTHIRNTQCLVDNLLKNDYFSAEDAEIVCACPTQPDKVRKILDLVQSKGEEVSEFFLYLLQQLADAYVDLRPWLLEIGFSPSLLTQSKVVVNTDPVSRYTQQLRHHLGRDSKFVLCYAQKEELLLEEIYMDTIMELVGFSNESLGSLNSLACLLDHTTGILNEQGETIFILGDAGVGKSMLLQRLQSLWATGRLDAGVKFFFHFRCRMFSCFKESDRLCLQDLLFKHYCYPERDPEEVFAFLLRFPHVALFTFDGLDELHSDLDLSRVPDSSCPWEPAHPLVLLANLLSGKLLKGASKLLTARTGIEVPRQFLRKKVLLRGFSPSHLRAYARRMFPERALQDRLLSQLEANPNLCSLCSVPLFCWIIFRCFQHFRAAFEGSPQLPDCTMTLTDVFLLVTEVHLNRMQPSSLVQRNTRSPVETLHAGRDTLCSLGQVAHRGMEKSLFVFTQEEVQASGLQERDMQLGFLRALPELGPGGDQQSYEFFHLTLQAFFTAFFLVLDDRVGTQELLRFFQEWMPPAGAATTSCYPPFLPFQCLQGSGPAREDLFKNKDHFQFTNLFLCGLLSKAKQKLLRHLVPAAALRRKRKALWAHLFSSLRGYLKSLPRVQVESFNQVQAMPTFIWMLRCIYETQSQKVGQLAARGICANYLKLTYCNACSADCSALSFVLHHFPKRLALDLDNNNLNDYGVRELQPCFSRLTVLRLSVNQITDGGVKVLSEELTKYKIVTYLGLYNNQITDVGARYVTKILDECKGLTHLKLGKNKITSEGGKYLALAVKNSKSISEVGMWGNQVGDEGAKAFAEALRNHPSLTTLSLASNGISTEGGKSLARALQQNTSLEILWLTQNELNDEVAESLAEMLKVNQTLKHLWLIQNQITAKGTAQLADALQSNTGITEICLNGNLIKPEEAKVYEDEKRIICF
- protocol.notes: NF-κB induction in HEK-Blue cells
- Format: cell-based
- run.conditions: primary screen, NF-κB induction
recorded.metric: Nod1-agonistic activity (in words)

CCCCCCCCCCCC(=O)N[C@H](CCC(=O)NC(CCCCC(=O)O)C(=O)O)C(=O)O (stereo partly shown) [Compound 67] :: abrogation of activity
CCCCCCCCCCCC(=O)N[C@H](CCC(=O)NCCCCCN)C(=O)O [Compound 69] :: abrogation of activity

Hey, just so you know, these numbers are from paper PMC3076632.
